Test system: Rattus norvegicus
Test: Compound was evaluated in experiment 1 for Change in total cholesterol at 0.3 (mg/kg) dose
Type: functional
The entries below come with measured Change TC values attached.
Assay endpoint: Change TC (%)

>>> endpoint_value("CCCCN(CCCC)Cc1cccc(C2(CNC(=O)Nc3c(C(C)C)cccc3C(C)C)CCCC2)c1")
-14
>>> endpoint_value("CC(C)c1cccc(C(C)C)c1NC(=O)NCC1(c2cccc(CN3CCOCC3)c2)CCCC1")
-24
>>> endpoint_value("CC(C)c1cccc(C(C)C)c1NC(=O)NCC1(c2ccc(N(C)C)cc2)CCCC1.Cl [NEVANIMIBE HYDROCHLORIDE]")
-20
>>> endpoint_value("CC(C)c1cccc(C(C)C)c1NC(=O)NCC1(c2cccc(CN3CCN(C)CC3)c2)CCCC1")
3

---

Biological target: Acyl-CoA:cholesterol acyltransferase (Oryctolagus cuniculus, UniProt Q95214)
Sequence (Q95214 whole entry): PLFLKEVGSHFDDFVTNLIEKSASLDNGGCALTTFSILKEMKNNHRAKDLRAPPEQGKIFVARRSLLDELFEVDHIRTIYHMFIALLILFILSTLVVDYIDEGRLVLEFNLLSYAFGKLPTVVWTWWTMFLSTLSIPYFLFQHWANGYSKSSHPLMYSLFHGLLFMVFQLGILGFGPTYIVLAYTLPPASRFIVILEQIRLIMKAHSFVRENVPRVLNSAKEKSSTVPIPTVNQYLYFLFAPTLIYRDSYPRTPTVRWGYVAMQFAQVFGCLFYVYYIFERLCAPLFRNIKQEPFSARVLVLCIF
Rule: IC50 below 20 nM gives Satisfied, anything at or above gives Not satisfied.

>>> category("CC(C)c1cccc(C(C)C)c1NC(=O)NCC1(c2cccc(CO)c2)CCCC1")
"Satisfied"
>>> category("CC(C)c1cccc(C(C)C)c1NC(=O)NCC1(c2ccc(N(CCO)CCO)cc2)CCCC1")
"Not satisfied"
>>> category("CC(C)c1cccc(C(C)C)c1NC(=O)NCC1(c2cccc(CN(C)C)c2)CCCC1")
"Not satisfied"
>>> category("CC(C)c1cccc(C(C)C)c1NC(=O)NCC1(c2ccc(Cl)cc2)CCCC1")
"Not satisfied"
>>> category("CC(C)c1cccc(C(C)C)c1NC(=O)NCC1(c2ccc(NCCO)cc2)CCCC1")
"Not satisfied"

---

Biological target: UniProt:Q95214
The entries below come with measured log10(IC50) values attached.
Assay endpoint: log10(IC50) (log10 of the value in nM)

>>> endpoint_value("CCCCN(CCCC)Cc1cccc(C2(CNC(=O)Nc3c(C(C)C)cccc3C(C)C)CCCC2)c1")
1.20
>>> endpoint_value("CC(C)c1cccc(C(C)C)c1NC(=O)NCC1(c2ccc(C(=O)O)cc2)CCCC1")
3.49
>>> endpoint_value("CC(C)c1ccc(C2(CNC(=O)Nc3c(C(C)C)cccc3C(C)C)CCCC2)cc1")
1.68
>>> endpoint_value("CC(C)c1cccc(C(C)C)c1NC(=O)NCC1(c2cc(C(F)(F)F)cc(C(F)(F)F)c2)CCCC1")
1.76
>>> endpoint_value("COC(=O)c1cccc(C2(CNC(=O)Nc3c(C(C)C)cccc3C(C)C)CCCC2)c1")
1.53
